Assay: chemical genetic growth profiling, strain panel (AID 1159580);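 note: tested at 20 µM; growth read once vehicle control cultures reached saturation at 30 °C; 1 = growth at the plate median or of vehicle wells; lower values mean less growth of the strain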
Conditions: S. cerevisiae deletion strains, growth OD, locus YLR102C, strain apc9
Among all 5,500 compounds or so, about 2,000 (36%) were called active. Another 18% or so got no clear call; they are omitted. Cut-off read from the data, not from the text of the source: active = normalized growth mostly below about 0.91 (no sharp cut-off); inconclusive = no clear call, values can overlap the other calls; inactive = mostly above about 0.92. This is one part of the list.
Labels: active, inactive

- COMPOUND: "COCCOC(=O)C1=C(C)NC(C)=C(C(=O)OC(C)C)C1c1cccc([N+](=O)[O-])c1 (configuration not stated)"
  DISCRETE_LABEL: "inactive"
- COMPOUND: "Nc1ccc(C(=O)O)c(O)c1"
  DISCRETE_LABEL: "inactive"
- COMPOUND: "Cn1nnnc1SCC1=C(C(=O)O)N2C(=O)C(NC(=O)C(O)c3ccccc3)C2SC1 (configuration not stated)"
  DISCRETE_LABEL: "inactive"
- COMPOUND: "CC1(C)O[C@@H]2CC3C4C[C@H](F)C5=CC(=O)C=C[C@]5(C)[C@@]4(F)[C@@H](O)C[C@]3(C)[C@]2(C(=O)CO)O1 (some centres not stated)"
  DISCRETE_LABEL: "inactive"
- COMPOUND: "CCCCCCc1ccc(O)cc1O"
  DISCRETE_LABEL: "inactive"
- COMPOUND: "Nc1ccc(C(=O)O)c(O)c1 (tested in a mixture with another compound)"
  DISCRETE_LABEL: "inactive"
- COMPOUND: "COC(=O)C[C@H]1C(C)(C)C(=O)[C@@H]2CC3=C4CC(OC)O[C@@H](c5ccoc5)[C@]4(C)CCC3[C@@]1(C)C2=O (some centres not stated)"
  DISCRETE_LABEL: "inactive"
- COMPOUND: "CCN(CCCCOC(=O)c1ccc(OC)c(OC)c1)C(C)Cc1ccc(OC)cc1 (configuration not stated)"
  DISCRETE_LABEL: "inactive"
- COMPOUND: "Nc1nc(N)c2nc(-c3ccccc3)c(N)nc2n1"
  DISCRETE_LABEL: "inactive"
- COMPOUND: "COC(=O)C1=C(C)NC(C)=C(C(=O)OC)C1c1ccccc1[N+](=O)[O-]"
  DISCRETE_LABEL: "inactive"
- COMPOUND: "CCC1C2CC3C4N(C)c5ccccc5C45CC(C2C5OC(C)=O)N3C1OC(C)=O (configuration not stated)"
  DISCRETE_LABEL: "inactive"
- COMPOUND: "CCCN1C[C@H](CSC)C[C@@H]2c3cccc4[nH]cc(c34)C[C@H]21"
  DISCRETE_LABEL: "inactive"
- COMPOUND: "O=C(O)c1nc2cc(Cl)c(Cl)cc2[nH]c1=O"
  DISCRETE_LABEL: "inactive"
- COMPOUND: "Cc1cc(=O)c2c(O)c3c(cc2o1)OCC(C)CC3 (configuration not stated)"
  DISCRETE_LABEL: "inactive"
- COMPOUND: "O=c1[nH]c2cc(Cl)c(Cl)cc2[nH]c1=O"
  DISCRETE_LABEL: "inactive"
- COMPOUND: "CC(=O)Nc1ccc(O)cc1"
  DISCRETE_LABEL: "inactive"
- COMPOUND: "CC(C)=CCc1c2c(c(O)c3c(=O)c(O)c(-c4ccccc4)oc13)C=CC(C)(C)O2"
  DISCRETE_LABEL: "inactive"
- COMPOUND: "CN(N=O)C(=O)N[C@@H]1[C@@H](O)[C@H](O)[C@@H](CO)O[C@@H]1O"
  DISCRETE_LABEL: "inactive"
- COMPOUND: "CCCCCCCCCc1ccc(O)cc1"
  DISCRETE_LABEL: "active"
- COMPOUND: "Nc1ccc(C(=O)Oc2ccccc2)c(O)c1"
  DISCRETE_LABEL: "active"
- COMPOUND: "CCCCC1C(=O)N(c2ccccc2)N(c2ccccc2)C1=O"
  DISCRETE_LABEL: "inactive"
- COMPOUND: "CCOC(=O)C1C(C=C(C)C)C1(C)C (configuration not stated)"
  DISCRETE_LABEL: "inactive"

---

// normalized growth lookup, one value per entry
Experiment: chemical genetic growth profiling, strain panel (AID 1159580);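 note: tested at 20 µM; growth read once vehicle control cultures reached saturation at 30 °C; 1 = growth at the plate median or of vehicle wells; lower values mean less growth of the strain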
Settings: S. cerevisiae deletion strains, growth OD, locus YDR150W, strain NUM1, hits give low values
About 2,000 (36%) of roughly 5,500 compounds were called active. Roughly 18% stayed inconclusive and do not appear here. Some of the results follow.
MEASURED_ATTRIBUTE: normalized growth

- COMPOUND: "COc1ccc(-c2cc(=O)c3cc(OC)ccc3o2)cc1"
  MEASURED_ATTRIBUTE: "normalized growth"
  DATA_VALUE: 0.983
- COMPOUND: "CCN(CC)CCNc1ccc(CO)c2sc3ccccc3c(=O)c12"
  MEASURED_ATTRIBUTE: "normalized growth"
  DATA_VALUE: 1
- COMPOUND: "COc1cccc(-c2cc(=O)c3cc(OC)ccc3o2)c1"
  MEASURED_ATTRIBUTE: "normalized growth"
  DATA_VALUE: 1
- COMPOUND: "O=C(NNC(=O)c1ccccc1[N+](=O)[O-])c1ccc(Cl)cc1"
  MEASURED_ATTRIBUTE: "normalized growth"
  DATA_VALUE: 0.904
- COMPOUND: "CN1CNc2c(c(=O)n(C)c(=O)n2C)C1"
  MEASURED_ATTRIBUTE: "normalized growth"
  DATA_VALUE: 0.998
- COMPOUND: "C=C1C(N)CC2CC1C2(C)C (centres undefined)"
  MEASURED_ATTRIBUTE: "normalized growth"
  DATA_VALUE: 0.998
- COMPOUND: "CN(C)CC/C=C1\\c2ccccc2COc2ccccc21"
  MEASURED_ATTRIBUTE: "normalized growth"
  DATA_VALUE: 1.01
- COMPOUND: "CN(C)CCC=C1c2ccccc2C=Cc2ccccc21"
  MEASURED_ATTRIBUTE: "normalized growth"
  DATA_VALUE: 0.987
- COMPOUND: "COC(=O)C1=C(Nc2ccc(Cl)cc2)CSC1"
  MEASURED_ATTRIBUTE: "normalized growth"
  DATA_VALUE: 0.929
- COMPOUND: "Cn1nnnc1SCC1=C(C(=O)O)N2C(=O)C(NC(=O)C(O)c3ccccc3)C2SC1 (centres undefined)"
  MEASURED_ATTRIBUTE: "normalized growth"
  DATA_VALUE: 1.03
- COMPOUND: "CCN(CC)CCNC(=O)c1ccc(NC(C)=O)cc1"
  MEASURED_ATTRIBUTE: "normalized growth"
  DATA_VALUE: 0.975
- COMPOUND: "CO[C@H]1CC=C2CCN3CCC4=C(CC(=O)OC4)[C@]23C1"
  MEASURED_ATTRIBUTE: "normalized growth"
  DATA_VALUE: 1.01
- COMPOUND: "Nc1ccc(C(=O)O)c(O)c1"
  MEASURED_ATTRIBUTE: "normalized growth"
  DATA_VALUE: 1.01
- COMPOUND: "C[C@@H]1CC[C@@]2(OC1)OC1C(O)C3C4CC[C@H]5C[C@H](O[C@@H]6O[C@H](CO)[C@H](O[C@@H]7O[C@H](CO)[C@@H](O)[C@H](O[C@@H]8OC[C@@H](O)[C@H](O)[C@H]8O)[C@H]7O[C@@H]7O[C@H](CO)[C@H](O)[C@H](O[C@@H]8O[C@H](CO)[C@@H](O)[C@H](O)[C@H]8O)[C@H]7O)[C@H](O)[C@H]6O)[C@H](O)C[C@]5(C)C4CC[C@]3(C)C1[C@@H]2C (some centres undefined)"
  MEASURED_ATTRIBUTE: "normalized growth"
  DATA_VALUE: 0.0485
- COMPOUND: "CC(=O)Nc1cccc(O)c1"
  MEASURED_ATTRIBUTE: "normalized growth"
  DATA_VALUE: 0.998
- COMPOUND: "CC(=O)O[C@H]1C[C@H](O[C@H]2[C@@H](O)C[C@H](O[C@H]3[C@@H](O)C[C@H](O[C@H]4CC[C@@]5(C)C(CCC6C5C[C@@H](O)[C@]5(C)[C@@H](C7=CC(=O)OC7)CC[C@]65O)C4)O[C@@H]3C)O[C@@H]2C)O[C@H](C)[C@H]1O[C@@H]1O[C@H](CO)[C@@H](O)[C@H](O)[C@H]1O (some centres undefined)"
  MEASURED_ATTRIBUTE: "normalized growth"
  DATA_VALUE: 1.01
- COMPOUND: "Cc1cc(Br)c(OCC(=O)NN)c2c1CCC2"
  MEASURED_ATTRIBUTE: "normalized growth"
  DATA_VALUE: 1.05
- COMPOUND: "C=CCn1c(Sc2ncc([N+](=O)[O-])s2)n[nH]c1=O"
  MEASURED_ATTRIBUTE: "normalized growth"
  DATA_VALUE: 0.929
- COMPOUND: "C[N+]1(CCCCC[N+]2(C)CCCC2)CCCC1"
  MEASURED_ATTRIBUTE: "normalized growth"
  DATA_VALUE: 1
